Listed next: entries and their corresponding SI (selectivity index), HepG-2.
Test system: HepG-2 liver cancer cell line
assay summary: MTT antiproliferative assay, HepG-2
assay context: relative to normal WI-38 cells
Hey, just send me the number, nothing else.

Record excerpt, results attached:
Cc1ccc(S(=O)(=O)n2nc(C)c3c(-c4ccccc4)c(C#N)c(=S)[nH]c32)cc1 [Compound 5a] | 23.52
O=c1[nH]cc(F)c(=O)[nH]1 [5-Fluorouracil, reference compound] | 27.77
Cc1ccc(S(=O)(=O)n2nc(C)c3c(-c4ccc(Cl)cc4)c(C#N)c(=S)[nH]c32)cc1 [Compound 5b] | 23.90

// below: SI (selectivity index), HepG-2 requested for another compound
Q: So what does the record say about SI (selectivity index), HepG-2 for Cc1ccc(S(=O)(=O)n2nc(C)c3sc(=S)n(-c4ccccc4)c32)cc1 [Compound 10b] ?
Result: 12.65

Each recorded value in this set is attributed to paper PMC10128108.
